# Test system: Mycobacterium tuberculosis
# assay.details: Bacteriostatic activity against Mycobacterium tuberculosis H37Rv at 0.5 ug/mL assessed as growth index after 5 days by radiometric growth assay (reference value: 210 growth index)
# Type: functional
Property: Growth_index; scope: individual compounds

Below: 5 compounds and their reported Growth_index.
| compound | Growth_index |
| --- | --- |
| Cn1c(=O)n(C)c(=O)n(C[S+]([O-])CC(N)=O)c1=O (stereo unspecified) | 50 |
| Cn1c(=O)n(C)c(=O)n(CCCCC[S+]([O-])CC(N)=O)c1=O (stereo unspecified) | 38 |
| Cn1c(=O)n(C)c(=O)n(CCCS(=O)(=O)CC(=O)NN)c1=O | >90 |
| Cn1c(=O)n(C)c(=O)n(CCS(=O)(=O)CC(=O)NN)c1=O | 40 |
| Cn1c(=O)n(C)c(=O)n(CCCCCS(=O)(=O)CC(=O)NN)c1=O | 50 |

Alright, here's another compound for you.
Q: For `Cn1c(=O)n(C)c(=O)n(CS(=O)(=O)CC(=O)NN)c1=O` , what is its reported Growth_index?
Result: 52

---

# Test system: Mycobacterium tuberculosis
# assay.details: Bacteriostatic activity against Mycobacterium tuberculosis H37Rv at 1 ug/mL assessed as growth index after 7 days by radiometric growth assay (reference value: 210 growth index)
# Assay type: functional
measurement.kind: Growth_index
Form field (numeric): enter value without unit.

| compound | measurement.kind | test.value |
| --- | --- | --- |
| Cn1c(=O)n(C)c(=O)n(CCS(=O)(=O)CC(=O)NN)c1=O | Growth_index | 33 |
| Cn1c(=O)n(C)c(=O)n(CCCCCC[S+]([O-])CC(N)=O)c1=O (stereo not given) | Growth_index | 54 |
| Cn1c(=O)n(C)c(=O)n(CCCCCCCCCC[S+]([O-])CC(=O)NN)c1=O (stereo not given) | Growth_index | 22 |
| Cn1c(=O)n(C)c(=O)n(CCCCS(=O)(=O)CC(=O)NN)c1=O | Growth_index | 73 |
| Cn1c(=O)n(C)c(=O)n(CS(=O)(=O)CC(=O)NN)c1=O | Growth_index | 20 |

Q: Please tell me: Growth_index of `Cn1c(=O)n(C)c(=O)n(CCCS(=O)(=O)CC(N)=O)c1=O` , system Mycobacterium tuberculosis?
Result: 39

Q: Please tell me: Growth_index of `Cn1c(=O)n(C)c(=O)n(CCCS(=O)(=O)CC(=O)NN)c1=O` , system Mycobacterium tuberculosis?
Result: 55

Q: Please tell me: Growth_index of `Cn1c(=O)n(C)c(=O)n(CCCCCS(=O)(=O)CC(N)=O)c1=O` , system Mycobacterium tuberculosis?
Result: 23

---

# Tested on: Mycobacterium tuberculosis
# assay.details: Bacteriostatic activity against Mycobacterium tuberculosis H37Rv at 0.1 ug/mL assessed as growth index after 7 days by radiometric growth assay (reference value: 210 growth index)
# Format: functional
Property: Growth_index; scope: individual compounds
Form field (numeric): enter value without unit.

| compound | Growth_index |
| --- | --- |
| Cn1c(=O)n(C)c(=O)n(CCCCC[S+]([O-])CC(=O)NN)c1=O (stereo not given) | 2 |

Alright, here's another compound for you.
Q: For `Cn1c(=O)n(C)c(=O)n(CS(=O)(=O)CC(=O)NN)c1=O` , what is its reported Growth_index?
Result: 47

---

Property: Growth_index; scope: individual compounds
# Test system: Mycobacterium tuberculosis
# assay.details: Bacteriostatic activity against Mycobacterium tuberculosis H37Rv at 1 ug/mL assessed as growth index after 3 days by radiometric growth assay (reference value: 210 growth index)
# Type: functional
Form field (numeric): enter value without unit.

Below: 3 compounds and their reported Growth_index.
| compound | tested.target | test.value |
| --- | --- | --- |
| Cn1c(=O)n(C)c(=O)n(CCS(=O)(=O)CC(=O)NN)c1=O | Mycobacterium tuberculosis | 18 |
| Cn1c(=O)n(C)c(=O)n(CCCCCC[S+]([O-])CC(=O)NN)c1=O (stereo not drawn) | Mycobacterium tuberculosis | 10 |
| Cn1c(=O)n(C)c(=O)n(CCCCS(=O)(=O)CC(=O)NN)c1=O | Mycobacterium tuberculosis | 18 |

Q: Please tell me: Growth_index of `Cn1c(=O)n(C)c(=O)n(CS(=O)(=O)CC(=O)NN)c1=O` , system Mycobacterium tuberculosis?
Result: 20

Q: Please tell me: Growth_index of `Cn1c(=O)n(C)c(=O)n(CCCCCCS(=O)(=O)CC(N)=O)c1=O` , system Mycobacterium tuberculosis?
Result: 5

Q: Please tell me: Growth_index of `Cn1c(=O)n(C)c(=O)n(CCCCCS(=O)(=O)CC(=O)NN)c1=O` , system Mycobacterium tuberculosis?
Result: 14

Q: Please tell me: Growth_index of `Cn1c(=O)n(C)c(=O)n(CCCS(=O)(=O)CC(=O)NN)c1=O` , system Mycobacterium tuberculosis?
Result: 5

Q: Please tell me: Growth_index of Cn1c(=O)n(C)c(=O)n(CCC[S+]([O-])CC(N)=O)c1=O (stereo not drawn) , system Mycobacterium tuberculosis?
Result: 7

Q: Please tell me: Growth_index of Cn1c(=O)n(C)c(=O)n(CCCCCCCCCC[S+]([O-])CC(=O)NN)c1=O (stereo not drawn) , system Mycobacterium tuberculosis?
Result: 0

Q: Please tell me: Growth_index of `Cn1c(=O)n(C)c(=O)n(CCCCCS(=O)(=O)CC(N)=O)c1=O` , system Mycobacterium tuberculosis?
Result: 15

Q: Please tell me: Growth_index of Cn1c(=O)n(C)c(=O)n(CC(O)CS(=O)(=O)CC(=O)NN)c1=O (stereo not drawn) , system Mycobacterium tuberculosis?
Result: 1

Q: Please tell me: Growth_index of Cn1c(=O)n(C)c(=O)n(CCC[S+]([O-])CC(=O)NN)c1=O (stereo not drawn) , system Mycobacterium tuberculosis?
Result: 5

Q: Please tell me: Growth_index of Cn1c(=O)n(C)c(=O)n(C[S+]([O-])CC(=O)NN)c1=O (stereo not drawn) , system Mycobacterium tuberculosis?
Result: 15

---

# System: Mycobacterium tuberculosis
# assay.details: Bacteriostatic activity against Mycobacterium tuberculosis H37Rv at 1 ug/mL assessed as growth index after 5 days by radiometric growth assay (reference value: 210 growth index)
# Type: functional
param class (str): category from Growth_index; see ranges low: < 30; moderate: ≥ 30 and < 50; high: ≥ 50

| compound | tested.target | class.name |
| --- | --- | --- |
| Cn1c(=O)n(C)c(=O)n(CCCCCCS(=O)(=O)CC(N)=O)c1=O | Mycobacterium tuberculosis | high |
| Cn1c(=O)n(C)c(=O)n(CCCCCC[S+]([O-])CC(=O)NN)c1=O (configuration not stated) | Mycobacterium tuberculosis | low |
| Cn1c(=O)n(C)c(=O)n(CCCCS(=O)(=O)CC(N)=O)c1=O | Mycobacterium tuberculosis | high |
| Cn1c(=O)n(C)c(=O)n(CCCCS(=O)(=O)CC(=O)NN)c1=O | Mycobacterium tuberculosis | high |
| Cn1c(=O)n(C)c(=O)n(CCC[S+]([O-])CC(N)=O)c1=O (configuration not stated) | Mycobacterium tuberculosis | high |
| Cn1c(=O)n(C)c(=O)n(CCS(=O)(=O)CC(=O)NN)c1=O | Mycobacterium tuberculosis | moderate |
| Cn1c(=O)n(C)c(=O)n(CC[S+]([O-])CC(=O)NN)c1=O (configuration not stated) | Mycobacterium tuberculosis | moderate |
| Cn1c(=O)n(C)c(=O)n(CCCCCC[S+]([O-])CC(N)=O)c1=O (configuration not stated) | Mycobacterium tuberculosis | moderate |
| Cn1c(=O)n(C)c(=O)n(CCCS(=O)(=O)CC(=O)NN)c1=O | Mycobacterium tuberculosis | high |
| Cn1c(=O)n(C)c(=O)n(CCC[S+]([O-])CC(=O)NN)c1=O (configuration not stated) | Mycobacterium tuberculosis | low |

Q: Exercise: read the entry `Cn1c(=O)n(C)c(=O)n(CCCCCS(=O)(=O)CC(N)=O)c1=O` and state which class it falls under.
Result: low

Q: Exercise: read the entry `Cn1c(=O)n(C)c(=O)n(CCCS(=O)(=O)CC(N)=O)c1=O` and state which class it falls under.
Result: moderate

Q: Exercise: read the entry Cn1c(=O)n(C)c(=O)n(C[S+]([O-])CC(=O)NN)c1=O (configuration not stated) and state which class it falls under.
Result: high

Q: Exercise: read the entry Cn1c(=O)n(C)c(=O)n(CCCCCCCCCC[S+]([O-])CC(=O)NN)c1=O (configuration not stated) and state which class it falls under.
Result: low

---

# Tested on: Mycobacterium tuberculosis
# assay.details: Bacteriostatic activity against Mycobacterium tuberculosis H37Rv at 0.1 ug/mL assessed as growth index after 5 days by radiometric growth assay (reference value: 210 growth index)
# Assay type: functional
measurement.kind: Growth_index

| molecule | tested.target | Growth_index |
| --- | --- | --- |
| Cn1c(=O)n(C)c(=O)n(CS(=O)(=O)CC(=O)NN)c1=O | Mycobacterium tuberculosis | 47 |

Q: For Cn1c(=O)n(C)c(=O)n(C[S+]([O-])CC(N)=O)c1=O (stereo not given) , what is its reported Growth_index?
Result: 36

Q: For Cn1c(=O)n(C)c(=O)n(CCCCC[S+]([O-])CC(=O)NN)c1=O (stereo not given) , what is its reported Growth_index?
Result: 1

Q: For `Cn1c(=O)n(C)c(=O)n(CCCCCCS(=O)(=O)CC(=O)NN)c1=O` , what is its reported Growth_index?
Result: 31

Q: For Cn1c(=O)n(C)c(=O)n(CCCCC[S+]([O-])CC(N)=O)c1=O (stereo not given) , what is its reported Growth_index?
Result: 30
